Experiment: NCI Yeast Anticancer Drug Screen. Data for the mlh1 rad18 strain (AID 175)
Details: S. cerevisiae mlh1 rad18 strain growth inhibition; at 50.0 µM (retest, dose inferred, filed as 5.0); stronger effect = higher value
About 79,000 compounds went through this panel and 15% of them were active in at least one assay; those are over-represented in the sample as a whole.
Classify by measured growth inhibition: criterion met if it is equal to or exceeds 40%, criterion not met if it is smaller.

INPUT: Item `C[C@H]1CC[C@@H]2[C@@H](C)[C@H]3[C@H](C[C@H]4[C@@H]5CC=C6C[C@@H](O)CC[C@]6(C)[C@H]5C[C@H](O)[C@]34C)N2C1` with growth inhibition of 40% or above?
OUTPUT: criterion not met

INPUT: OCC1(c2ccccc2)OC1c1ccccc1 (stereo not given) ?
OUTPUT: criterion not met

INPUT: Same question for OC(c1cc(-c2ccccc2)nc2c(Cl)cc(Cl)cc12)C1CCCCN1 (stereo not given) please.
OUTPUT: criterion met

INPUT: Cool, now `CCCC/C(=C\c1cc(Cl)c(O)c(Cl)c1)C(=O)O`
OUTPUT: criterion met

INPUT: Also check `COc1ccccc1NC(=O)C1=C(C)NC(C)=C(C(=O)Nc2ccccc2OC)C1c1ccc(OC)c(OC)c1`
OUTPUT: criterion not met

INPUT: # iterate: O=C(NCCCN1CC2CCCC2C1)C(C1CCCCC1)C1CCCCC1 (stereo not given)
OUTPUT: criterion met

INPUT: Thanks! And `Cn1c(=O)c2c(nc(OCC(C)(C)C)n2C)n(C)c1=O` ?
OUTPUT: criterion not met

INPUT: Same question for `Cc1cccc(/C=N\OCCc2ccccc2)n1` please.
OUTPUT: criterion met

INPUT: Param item: CC(O)(c1ccccc1)c1ccccc1S(=O)(=O)Nc1ccccc1 (stereo not given)
OUTPUT: criterion met

INPUT: And then `CCOC(=O)CC1=NC(=Nc2cc(Cl)ccc2Cl)SC1` , what is it?
OUTPUT: criterion met

----------
Assay: NCI Yeast Anticancer Drug Screen. Data for the mec2-1 strain (AID 157)
Details: S. cerevisiae mec2-1 strain, at 50.0 µM (retest, dose inferred, filed as 5.0), stronger effect = higher value
The panel holds about 79,000 compounds, 15% with a hit somewhere; the sample as a whole holds those more often.
Short version: growth inhibition at least 60% is Yes, less is No.

INPUT: Please indicate if the recorded growth inhibition for O=C1c2cccc(O)c2C(=O)c2c(OC3OC(CO)C(O)C(O)C3O)cccc21 (stereo unspecified) meets or exceeds 60%.
OUTPUT: No

INPUT: Also need `CC1CCN(CCCOC(=O)c2ccccc2)CC1` , thanks.
OUTPUT: No

INPUT: Try `COc1ccc(/C=N/NC(=O)c2ccco2)cc1OC` next.
OUTPUT: No

INPUT: Likewise for `CCO/C=C1N=C(/C=C/c2ccccc2Cl)OC/1=O` ?
OUTPUT: No

INPUT: Repeat for the following compound: `CCCCCCSC(=Cc1cccc[n+]1C)SCCCCCC`
OUTPUT: Yes

----------
Assay: NCI Yeast Anticancer Drug Screen. Data for the mlh1 rad18 strain (AID 175)
Conditions: S. cerevisiae mlh1 rad18 strain growth inhibition; at 50.0 µM (retest, dose inferred, filed as 5.0); stronger effect = higher value
The panel holds about 79,000 compounds, 15% with a hit somewhere; the sample as a whole holds those more often.
Classify by measured growth inhibition: 1 if it is equal to or exceeds 80%, -1 if it is smaller.

INPUT: Could you please find out whether `Cc1cc2c(Br)cc(Br)c(O)c2nc1C(=O)c1ccccc1` has growth inhibition that meets 80% or exceeds it?
OUTPUT: -1

INPUT: Field entry: CCN1C(/C=C/c2ccc(O)c3ncccc23)CCC2CC(C)CCC21 (stereo unspecified)
OUTPUT: 1

INPUT: Check `Cn1c2ccccc2c2cc3cnccc3cc21` too.
OUTPUT: 1

INPUT: Field entry: `C=CCCCCCCCCC(=O)OCC=C`
OUTPUT: -1

INPUT: Query `CN(C)CCCNc1ccc(O)c2c1C(=O)c1ccccc1C2=O` next
OUTPUT: 1

INPUT: `ClC1=C(Cl)C(Cl)(Cl)C(Cl)(Cl)C1(Cl)Cl` ?
OUTPUT: 1

INPUT: Okay, and `N#Cc1c([N+](=O)[O-])cc(C(F)(F)F)cc1[N+](=O)[O-]` ?
OUTPUT: 1

INPUT: // same read-out, input: CC(/C=C/NNC1=NC(c2ccccc2)C(c2ccccc2)=NN1)Sc1ccccc1N (stereo unspecified)
OUTPUT: -1

INPUT: Also need O=C(Nc1ccc(Cl)cc1)OCC1C2C=CC(C2)C1CO (stereo unspecified) , thanks.
OUTPUT: 1

INPUT: Then this molecule: O=C1c2ccccc2C(=O)C2(C(c3ccccc3)c3ccccc3)N=NCC12 (stereo unspecified)
OUTPUT: -1

INPUT: Now the molecule `Nc1ccccc1Nc1c([N+](=O)[O-])cc(C(F)(F)F)cc1[N+](=O)[O-]`
OUTPUT: -1
